Just for reference, a melting point compilation (Tetko et al.; mined from patent text by program, amines drawn as free bases though some values may be those of a salt) is where these values come from.

melting point: recorded values
observation type: melting point

INSERT INTO assay_data (compound, observation_type, meas_value) VALUES
  ('CNS(=O)(=O)c1cccc(S(N)(=O)=O)c1', 'melting point', '125 to 128 °C'),
  ('Cc1c(C)c2c(c(C)c1NC(=O)c1cccs1)C(c1ccc(C(C)C)cc1)C(C)(C)O2 (stereo unspecified)', 'melting point', '222 to 224 °C'),
  ('NC1(C2CCCC2=O)OCCO1 (stereo unspecified)', 'melting point', '134 to 136 °C'),
  ('COc1cc([N+](=O)[O-])c(NCCCO)cc1O', 'melting point', '149 °C'),
  ('CCNS(=O)(=O)CC(=O)C=C(C)N', 'melting point', '112 to 114 °C'),
  ('N#CCN(CC#N)CCN(CC#N)CC#N', 'melting point', '131 to 132 °C');
